- TEST_TARGET: DNA topoisomerase 2-alpha (Homo sapiens)
- TEST_NAME: Inhibition of human topoisomerase 2alpha assessed as relaxation of supercoiled DNA pBR322 at 2 uM relative to etoposide
// values below are reported inhibition
Reply numerically in %, unit not repeated.

// query inhibition value for entry `N[C@H]1CCN(c2c(F)cc3c(=O)c(C(=O)O)cn4c3c2Oc2nc(O)ncc2-4)C1`
0

----------
- TEST_TARGET: DNA topoisomerase 2-alpha (Homo sapiens)
- TEST_NAME: Inhibition of human topoisomerase 2alpha assessed as relaxation of supercoiled DNA pBR322 at 2 uM relative to etoposide
MEASUREMENT_TYPE: inhibition

Worked cases, inhibition given:
N[C@H]1CCN(c2c(F)cc3c(=O)c(C(=O)O)cn4c3c2Sc2ccccc2-4)C1 = 57%
COc1cc([C@@H]2c3cc4c(cc3[C@@H](O[C@@H]3O[C@@H]5CO[C@@H](C)O[C@H]5[C@H](O)[C@H]3O)[C@H]3COC(=O)[C@H]23)OCO4)cc(OC)c1O [ETOPOSIDE] = 0.7%
N[C@H]1CCN(c2c(F)cc3c(=O)c(C(=O)O)cn4c3c2Oc2cc(S(=O)(=O)O)c3ccccc3c2-4)C1 = 1.9%
O=C(O)c1cn2c3c(c(F)c(F)cc3c1=O)Oc1ccccc1-2 = 0.5%
N[C@H]1CCN(c2c(F)cc3c(=O)c(C(=O)O)cn4c3c2Oc2ccc([N+](=O)[O-])cc2-4)C1 = 26%

Which value of inhibition has been reported for `N[C@H]1CCN(c2c(F)cc3c(=O)c(C(=O)O)cn4c3c2Oc2ccc(Cl)cc2-4)C1` in the records?
89%

Then what about the compound `N[C@H]1CCN(c2c(F)cc3c(=O)c(C(=O)O)cn4c3c2Oc2ccccc2-4)C1` ?
89.1%
